substrate: O=C(CO)[C@@H](O)[C@H](O)[C@H](O)CO; assay: Determination of kinetic parameters of DPEase (HPLC assay of D-psicose formed); assay type: biochemical, Clostridium cellulolyticum; conditions: other: 50 mM Tris-HCl buffer (pH 8.0), 0.1mM Co^2+, 5-200mM substrate, 55 °C
PROPERTY MEASURED: kcat/Km (mM^-1 min ^-1)
Please respond with the number in mM^-1 min ^-1 and leave the unit unwritten.

Qu. What does the data say about its kcat/Km? Entry: D-psicose 3-epimerase (DPEase) from Clostridium cellulolyticum, variant G211D (Ruminiclostridium cellulolyticum H10; G211D) (protein, made in house; host or cells: Bacillus subtilis WB600 (pMA5)) MKHGIYYAYWEQEWEADYKYYIEKVAKLGFDILEIAASPLPFYSDIQINELKACAHGNGITLTVGHGPSAEQNLSSPDPDIRKNAKAFYTDLLKRLYKLDVHLIGGALYSYWPIDYTKTIDKKGDWERSVESVREVAKVAEACGVDFCLEVLNRFENYLINTAQEGVDFVKQVDHNNVKVMLDTFHMNIEEDSIGGAIRTAGSYLGHLHTDECNRKVPGRGRIPWVEIGEALADIGYNGSVVMEPFVRMGGTVGSNIKVWRDISNGADEKMLDREAQAALDFSRYVLECHKHS
Ans. 86.7
